Target: T1, human B7-H3 (4Ig-B7-H3 variant) (Homo sapiens, UniProt Q5ZPR3)
T1 construct: His tag (6xHis) (C)
T1 sequence (Q5ZPR3 with tags, fused parts or gaps): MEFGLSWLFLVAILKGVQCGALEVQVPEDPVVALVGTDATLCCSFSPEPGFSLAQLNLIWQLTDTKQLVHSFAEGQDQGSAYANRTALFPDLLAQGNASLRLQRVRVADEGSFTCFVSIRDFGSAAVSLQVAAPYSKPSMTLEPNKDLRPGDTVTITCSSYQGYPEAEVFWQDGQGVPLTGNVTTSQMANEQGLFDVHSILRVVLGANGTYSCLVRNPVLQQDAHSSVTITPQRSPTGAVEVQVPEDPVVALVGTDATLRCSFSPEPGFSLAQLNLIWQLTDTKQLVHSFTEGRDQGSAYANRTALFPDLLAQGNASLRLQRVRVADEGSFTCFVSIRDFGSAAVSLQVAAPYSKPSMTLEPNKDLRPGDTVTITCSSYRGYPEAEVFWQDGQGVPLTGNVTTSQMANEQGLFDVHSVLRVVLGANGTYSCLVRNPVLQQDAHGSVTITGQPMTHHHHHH
Test: Biacore T200 SPR binding kinetics, mAb capture, soluble ECD of human B7-H3
Conditions: 1:1 binding model
Label Satisfied when kd (1/s) huB7-H3 is at or above 0.001 s⁻¹; anything below gets Not satisfied.

### Prompt Can Ab11: murine anti-B7-H3 mAbs; mouse hybridoma derived (antibody, V domains shown) VH: EVKLVESGGGLVQPGGSLRLSCATSGFTFTNYYMSWVRQPPGKALEWLGFIRNKANDYTTEYSASVKGRFTISRDNSQSILYLQMNTLRAEDSATYYCARESPGNPFAYWGQGTLVTVSA VL: DIVMTQSPSSLTVTAGEKVTMTCKSSQSLLNSGTQKNFLTWYQQKPGQPPKLLIYWASTRESGVPDRFTGSGSGTDFTLTISSVQAEDLAVYFCQNDYIYPLTFGAGTKLELK be said to have kd (1/s) huB7-H3 at or above 0.001 s⁻¹?
### Response Not satisfied

### Prompt Can Ab18: the murine monoclonal Ab18 (antibody, V domains shown) VH: QVQLQQSAAELARPGASVKMSCKASGYSFTSYTIHWVKQRPGQGLEWIGYINPNSRNTDYNQKFKDETTLTADRSSSTAYMQLISLTSEDSAVYYCARYSGSTPYWYFDVWGAGTTVTVSS VL: QIVLTQSPAILSASPGEKVTMTCRASSSVSYMNWYQQKPGSSPKPWIYATSNLASGVPARFSVSVSGTSHSLTISRVEAEDAATYYCQQWSSNPLTFGAGTKLELK be said to have kd (1/s) huB7-H3 at or above 0.001 s⁻¹?
### Response Not satisfied

### Prompt Can Ab4: murine anti-B7-H3 mAbs; mouse hybridoma derived (antibody, V domains shown) VH: QVQLQQPGAELVKPGASVKLSCKASGYSFTSYWMHWVKQRPGQGLEWIGMIHPNSGSNNYNEKFKSKATLTVDKSSNTAYMQLSSLTSEDSAVYYCARRLGLHFDYWGQGTTLTVSS VL: DIVMTQSQKFMSTPVGDRVSITCKASQNVGTAVAWYQQKPGQSPKLLIYSASNRYTGVPDRFTGSGSGTDFTLTISNMQSEDLADYFCQQYSSYPYTFGGGTKLEIK be said to have kd (1/s) huB7-H3 at or above 0.001 s⁻¹?
### Response Satisfied

### Prompt Can Ab2: mouse hybridoma derived anti-B7-H3 monoclonal antibodies (mAbs) (antibody, V domains shown) VH: QVQLQQPGAELVKPGASVKLSCKASGYTFTSYWMHWVKQRPGQGLEWIGMIHPDSGTTNYNEKFRSKATLTVDKSSSTAYMQLSSLTSEDSAVYYCAVYYGSTYWYFDVWGTGTTVTVSS VL: DVVMTQTPLSLPVSLGDQAYISCRSSQSLVHINGNTYLHWYRQKPGQSPKLLIYKVSNRFSGVPDRFSGSGSGTDFTLKISRVEAEDLGVYFCSQSTHFPFTFGSGTKLEIK be said to have kd (1/s) huB7-H3 at or above 0.001 s⁻¹?
### Response Satisfied

### Prompt Can Ab6: mouse hybridoma derived anti-B7-H3 monoclonal antibodies (mAbs) (antibody, V domains shown) VH: QVQLQQSGAELMKPGASVKISCKATGYTFSRYWIEWVKQRPGHGLEWIGEILPGSGSTNYNEKFKGKATFTADTSSNTAYMQVSSLTSEDSAVHYCARRGYGYVPYALDYWGQGTSVTVSS VL: EIQMTQTTSSLSASLGDRVTISCRASQDISNSLNWYQQKPDGTVNLLIYYTSRLYSGVPSRFSGSGSGTDYSLTISNLEQEDIATYFCQQGNTLPYTFGGGTKLEIK be said to have kd (1/s) huB7-H3 at or above 0.001 s⁻¹?
### Response Satisfied
